Target: T1, human Trop-2 on the surface of cells (CHO/Trop-2 cells; BxPC-3 cells; NCI-N87 cells) (human, UniProt P09758 27-323)
T1 sequence (looked up): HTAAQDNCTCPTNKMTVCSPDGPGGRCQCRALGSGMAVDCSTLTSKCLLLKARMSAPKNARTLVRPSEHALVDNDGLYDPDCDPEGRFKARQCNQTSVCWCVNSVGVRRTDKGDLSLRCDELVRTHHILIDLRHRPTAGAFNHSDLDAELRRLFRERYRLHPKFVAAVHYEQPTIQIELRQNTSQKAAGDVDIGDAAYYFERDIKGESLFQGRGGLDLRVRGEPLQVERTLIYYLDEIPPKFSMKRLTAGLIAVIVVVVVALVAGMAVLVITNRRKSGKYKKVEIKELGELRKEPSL
Assay: cell-based or functional assay
Readout label: Internalization percentage (%), 5 h, BxPC-3 cells, FACS
Your answer should be a plain number; it is taken to be in %.

// below: answered binders
[
  {
    "Binder": "Sacituzumab (antibody, human IgG1, kappa, V domains shown, expressed in HEK293; also called control antibody Sacituzumab; Saituzumab) VH: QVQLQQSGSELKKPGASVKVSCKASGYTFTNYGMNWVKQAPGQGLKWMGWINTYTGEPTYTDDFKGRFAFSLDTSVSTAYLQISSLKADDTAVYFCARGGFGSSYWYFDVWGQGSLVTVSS VL: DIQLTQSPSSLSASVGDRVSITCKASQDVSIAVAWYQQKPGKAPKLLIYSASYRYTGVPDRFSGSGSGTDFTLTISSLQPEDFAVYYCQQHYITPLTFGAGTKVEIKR",
    "Unit of measure": "%",
    "Measured": 20.4
  },
  {
    "Binder": "chimeric antibody ch11-4 (antibody, human IgG1, V domains shown) VH: QVQLQQPGAELVRPGASVNLSCKASGYTFTSYWINWVKQRPGQGLEWIGNIYPSNSYTNYNQKFKDTATLTVDKSSSTAYMQLSSPTSEDSAVYFCSSYRSDGFAYWGQGTLVTVSA VL: DILLTQSPAILSVSPGEKVSFSCRASQNIGTSIHWYQQRTNGSPRLLIEFASESISGIPSRFSGSGSGTDFTLTINSVESEDIADYYCQQSNSWPFTFGGGTKLEIK",
    "Unit of measure": "%",
    "Measured": -9.38
  },
  {
    "Binder": "chimeric antibody ch4-3 (antibody, human IgG1, V domains shown) VH: QVQLQQSGPELVKPGASVKMSCKASGFTFTDYVIGWVKQRTGQGLEWIGEIYLGSGTIYYTEKFKGKATLTADTSSNTAYMQLSSLTSEDSAVYFCARGSIFPFDYWGQGTTLTVSS VL: QIVLTQSPAIMSASPGEKVTMTCSASSSVSYMYWYQQKPGSSPRLLIYDTSTLASGVPVRFSGSGSGTSYSLTISRMEAEDAATYYCQQWSSYPYTFGGGTKLEIK",
    "Unit of measure": "%",
    "Measured": 28.1
  }
]

# query: Internalization percentage (%), 5 h, BxPC-3 cells, FACS of entry chimeric antibody ch3-11 (antibody, human IgG1, V domains shown) VH: QVQLQQPGAELVKPGSSVKLSCKASGYTFTSYWMYWVKQRPGQGLEWIGEINPSNGRTNYNEKFKSKATLTVDKSSSTAYMQFSSLTSEDSAVYYCTREGHNYDGSLGAMDHWGQGTSVTVSS VL: DVVVTQTPLSLPVSFGDQVSISCRSSQSLTNSYGNTFLSWYLHKPGQSPQLLLYGISNRFSGVPDRFSGSGSGTDFTLKINTIKPEDLGMYYCFQSTHQPYTFGGGTKLEIK
-8.48

# query: Internalization percentage (%), 5 h, BxPC-3 cells, FACS of entry chimeric antibody ch23-12 (antibody, human IgG1, V domains shown) VH: QVQLQQPGAELVKPGASVKLSCKADGYIFTSYWMHWVKQRPGQGLEWIGEITPSDNYTSYNQKFKGKATLTVDKSSSTAYMQLSSLTSEDSAVYYCTRGHGNYVSFDYWGQGTTLTVSS VL: DIQMTQITSSLSASLGDRVTITCRASQDISNYLNWYQQKPDGTVKLLIYYTSRLHSGVPSRFSGSGSGTDYSLTISNLEQEDIATYFCQQGYTLPPYTFGGGTKLEIK
27.1
